Tested on: MAFB (Homo sapiens, UniProt Q9Y5Q3)
Sequence (Q9Y5Q3 whole entry): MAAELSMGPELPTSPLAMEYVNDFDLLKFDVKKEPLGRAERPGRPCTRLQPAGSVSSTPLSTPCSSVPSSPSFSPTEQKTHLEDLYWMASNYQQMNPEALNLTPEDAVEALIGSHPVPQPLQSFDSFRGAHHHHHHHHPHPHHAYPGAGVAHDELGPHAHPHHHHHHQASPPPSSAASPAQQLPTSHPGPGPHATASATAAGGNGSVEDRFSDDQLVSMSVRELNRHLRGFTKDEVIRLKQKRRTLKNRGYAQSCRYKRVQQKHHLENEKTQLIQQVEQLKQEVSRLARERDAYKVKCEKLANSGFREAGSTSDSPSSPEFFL
Procedure summary: FRET or BRET; direct-binding FRET in 384-well plates; rhodamine-labelled design (acceptor) titrated 0 to 1 uM into 10 nM fluorescein-labelled bZIP (donor); 150 mM KCl, 50 mM potassium phosphate pH 7.4, 0.1% Tween-20, 0.1% BSA; 37 °C
pKd: −log10 of the molar value. Where no end group is shown, it is not given here.
Quantity: pKd

Req: Answer with the recorded pKd of ATF5-d1 labeled at the N-terminus (designed binder) GESKEYKKGSGSC(Rhodamine Red C2‑maleimide)GKRIAYLRQRIAELRNENHVLESRIQRMEKEKDALQQDRDHLEYEL only.
Resp: < 5.30
